- Test details: Solubility
- Format: physicochemical
- Condition details: in water; read-out: Solubilités : soluble dans l'eau
Result type: solubility (mg/mL)

Entry CC(C)(C)NCC(O)COCC1CCCCC1 (stereo not drawn) [Exemple 5] : reported solubility = ?
25

Entry CC1CCCCC1OCC(O)CNC(C)(C)C (stereo not drawn) [Exemple 1] : reported solubility = ?
100

Entry CC(C)(C)NCC(O)COCC1CC=CCC1 (stereo not drawn) [Exemple 8] : reported solubility = ?
100

Entry C#CC(C)(C)NCC(O)COC1CCCCC1 (stereo not drawn) [Exemple 3] : reported solubility = ?
20

a = CC(C)(C)NCC(O)COCCC1=CCC2CC1C2(C)C (stereo not drawn) [Exemple 6]
b = CC(C)NCC(O)COCC1CCCCC1 (stereo not drawn) [Exemple 4]
Hello, I am sorting some records. Could you say if a or b has the smaller solubility value? Your choice should be expressed through its label.
a
